Task for the reader: assign each of the following compounds its reported IC50.

The observed IC50 for CC(Oc1ccc2c(-c3ccccc3)cc(=O)oc2c1)C(=O)N1CCCC(C(N)=O)C1 (stereo not drawn) when tested with UniProtKB Q8BKF1 stands at 1000 to 10000 nM

The observed IC50 for CCOC(=O)C1CCCN(C(=O)COc2ccc3c(-c4ccccc4)cc(=O)oc3c2)C1 (stereo not drawn) when tested with UniProtKB Q8BKF1 stands at 1000 to 10000 nM

The observed IC50 for CC(Oc1ccc2c(-c3ccccc3)cc(=O)oc2c1)C(N)=O (stereo not drawn) when tested with UniProtKB Q8BKF1 stands at 1000 to 10000 nM

The observed IC50 for CC(Oc1ccc2c(-c3ccccc3)cc(=O)oc2c1)C(=O)NCC(O)c1ccccc1 (stereo not drawn) when tested with UniProtKB Q8BKF1 stands at 1000 to 10000 nM

The observed IC50 for CC(Oc1ccc2c(-c3ccccc3)cc(=O)oc2c1)C(=O)Nc1ccccc1 (stereo not drawn) when tested with UniProtKB Q8BKF1 stands at 100 to 1000 nM

The observed IC50 for `NC(=O)COc1cc2oc(=O)cc(-c3ccccc3)c2cc1Cl` when tested with UniProtKB Q8BKF1 stands at 1000 to 10000 nM

The observed IC50 for O=C(O)C1CCCN(C(=O)COc2ccc3c(-c4ccccc4)cc(=O)oc3c2)C1 (stereo not drawn) when tested with UniProtKB Q8BKF1 stands at 100 to 1000 nM

The observed IC50 for O=C(COc1cc2oc(=O)cc(-c3ccccc3)c2cc1Cl)NCC(O)c1ccccc1 (stereo not drawn) when tested with UniProtKB Q8BKF1 stands at 1000 to 10000 nM

The observed IC50 for CNC(=O)C1CCCN(C(=O)C(C)Oc2ccc3c(-c4ccccc4)cc(=O)oc3c2)C1 (stereo not drawn) when tested with UniProtKB Q8BKF1 stands at 1000 to 10000 nM

The observed IC50 for CC(Oc1ccc2c(-c3ccccc3)cc(=O)oc2c1)C(=O)N1CCCCC1 (stereo not drawn) when tested with UniProtKB Q8BKF1 stands at 100 to 1000 nM

The observed IC50 for CC(Oc1ccc2c(-c3ccccc3)cc(=O)oc2c1)C(=O)NC(C(=O)O)c1ccccc1 (stereo not drawn) when tested with UniProtKB Q8BKF1 stands at 1000 to 10000 nM

The observed IC50 for `CCCOC(=O)COc1cc2oc(=O)cc(-c3ccccc3)c2cc1Cl` when tested with UniProtKB Q8BKF1 stands at 1000 to 10000 nM

The observed IC50 for COC(=O)[C@@H]1CCCN(C(=O)C(C)Oc2ccc3c(-c4ccccc4)cc(=O)oc3c2)C1 (stereo partly drawn) when tested with UniProtKB Q8BKF1 stands at 1000 to 10000 nM

The observed IC50 for CC(Oc1ccc2c(-c3ccccc3)cc(=O)oc2c1)C(=O)NCCN1CCOCC1 (stereo not drawn) when tested with UniProtKB Q8BKF1 stands at 1000 to 10000 nM

The observed IC50 for CC(Oc1ccc2c(-c3ccccc3)cc(=O)oc2c1)C(=O)N1CCC[C@@H](C(=O)O)C1 (stereo partly drawn) when tested with UniProtKB Q8BKF1 stands at 1000 to 10000 nM

Origin of the recorded values: patent US10703735B2
